Provide the recorded normalized growth for the entries that follow.
assay: chemical genetic growth profiling, strain panel (AID 1159580);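 further: tested at 20 µM; growth read once vehicle control cultures reached saturation at 30 °C; 1 = growth at the plate median or of vehicle wells; lower values mean less growth of the strain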; conditions: S. cerevisiae deletion strains, growth OD, locus YHR079C, strain IRE1, active compounds read low
Out of some 5,500 compounds screened, about 2,000 (36%) were called active. Inconclusive results (about 18%) are left out. This is one part of the list.
Form rule: numeric answer, no unit written next to it.

Memo: "Nc1ccc(S(=O)(=O)Nc2cnc3ccccc3n2)cc1" , reported normalized growth: 0.957

Memo: "Cc1nc(-c2ccccn2)nc(SCc2ccccc2)c1Cl" , reported normalized growth: 0.766

Memo: "Cc1oc(C(C)(C)C)cc1-c1cc(N)n(-c2ccc(I)cc2)n1" , reported normalized growth: 0.894

Memo: "COC(=O)c1cnn(-c2c(Cl)cccc2Cl)c1C=C(C#N)C#N" , reported normalized growth: 0.775

Memo: CC(C)Cc1ccc(C(C)C(=O)Nc2nn(C)c3ccccc23)cc1 (centres undefined) , reported normalized growth: 0.945

Memo: COC(=O)C[C@H]1C(C)(C)C(=O)[C@@H]2CC3C4=CC(=O)O[C@@H](c5ccoc5)[C@]4(C)CCC3[C@@]1(C)C2=O (some centres undefined) , reported normalized growth: 0.979

Memo: CC(=O)Nc1ccc(OCC(O)CNC(C)C)cc1 (centres undefined) , reported normalized growth: 0.978

Memo: CCC(C)C(=O)O[C@H]1[C@H](O)C2C(CN3CC(C)CCC3[C@@]2(C)O)C2C[C@]34O[C@]5(O)C(OC(=O)C(C)(O)CC)CC[C@@]3(C)C5C(OC(C)=O)[C@@H](OC(C)=O)C4[C@@]21O (some centres undefined) , reported normalized growth: 1.01

Memo: "CC(C)(Sc1cc(C(C)(C)C)c(O)c(C(C)(C)C)c1)Sc1cc(C(C)(C)C)c(O)c(C(C)(C)C)c1" , reported normalized growth: 1
